- MEASURED ON: (NPNA)3 (Plasmodium falciparum)
- TEST METHOD NOTES: SPR, antibody on chip
METRIC: pKd
Answers are plain numbers, as −log10 of the molar value.

Solved entries:
- BINDER: "AB-007048 (antibody, V domains shown) VH: QMQLVESGGGVVQPGRSLRLSCTASGFTFSTYSMHWVRQSPGQGLQWVAVISYHSTNKYYEDSVRGRFTISRDNSKNTLYLQMNSLRAEDTAVYYCARDGYSSSFFDFWGQGTLVTVSS VL: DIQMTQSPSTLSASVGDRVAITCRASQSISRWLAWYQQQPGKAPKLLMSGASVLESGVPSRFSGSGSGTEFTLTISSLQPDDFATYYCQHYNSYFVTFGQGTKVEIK"
  READOUT VALUE: 5.81
- BINDER: "AB-007052 (antibody, V domains shown) VH: QMQLVESGGGVVQPGRSLRLSCTASGFTFSTYAMHWVRQSPGQGLQWVAVISYHSNNKYYEDSVRGRFTISRDNSKNTLYLQMNSLRAEDTAVYYCARDGYSSSFFDFWGQGTLVTVSS VL: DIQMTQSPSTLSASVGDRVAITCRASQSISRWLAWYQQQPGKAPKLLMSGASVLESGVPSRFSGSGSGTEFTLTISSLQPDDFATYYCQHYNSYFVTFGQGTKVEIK"
  READOUT VALUE: 8.20

# ---- query binder ----
I have this binder here, AB-007071 (antibody, V domains shown) VH: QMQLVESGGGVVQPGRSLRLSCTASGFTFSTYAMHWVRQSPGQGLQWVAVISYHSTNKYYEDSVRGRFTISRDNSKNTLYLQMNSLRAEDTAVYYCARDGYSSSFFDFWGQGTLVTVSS VL: DIQMTQSPSTLSASVGDRVAITCRASQSISRWLAWYQQQPGKAPKLLMSGASSLESGVPSRFSGSGSGTEFTLTISSLQPDDFATYYCQHYNSYFVTFGQGTKVEIK , and I need its recorded pKd.
7.99
